Ki values recorded for human GPR6 (Homo sapiens (Human))
Quick reminder: number only, in nM, skip the unit.

input: Would you kindly share the measured Ki for CC(=O)N1CCc2nc(N3CCC(Oc4ccc(F)cc4F)CC3)c(N[C@@H]3CCOC3)nc2C1 [Formula 1] ?
output: 5.5

input: // repeat for CC(=O)N1CCc2nc(N3CCC(Oc4ccc(F)cc4F)CC3)c(N[C@H]3CCOC3)nc2C1 [Compound A, reference compound] and report
output: 6
